- assayMethodText: Microsomal stability assay, mouse liver microsomes
- Format: in vitro ADME
- measurementContext: mouse, liver microsomes, pH 7.4, mouse liver microsomes, 1 μM compound, 0.5 mg/mL protein, 37° C.; read-out: MLM +30/− NADPH: Clint (μL/min/mg protein)
The reader will find reported microsomal CLint at 1 μM values listed item by item below.

# example entries with known answers
* CC(C)(c1ccc(OCc2cnc(NS(C)(=O)=O)o2)cc1)c1cc(Cl)c(OCCCl)c(C#N)c1 [Compound A133] | ≥ 48 µL/min/mg
* CSc1ncc(COc2ccc(C(C)(C)c3cc(Cl)c(OCCCl)c(Cl)c3)cc2)o1 [Compound A111] | 12 to 48 µL/min/mg
* COc1c(Cl)cc(C(C)(C)c2ccc(OCc3coc(NS(C)(=O)=O)n3)cc2)cc1C#N [Compound A161] | < 12 µL/min/mg

Answer with the recorded microsomal CLint at 1 μM for the compound listed here: CC(C)(c1ccc(OCc2ocnc2S(C)(=O)=O)cc1)c1cc(Cl)c(OCC(Cl)CO)c(Cl)c1 (stereo not drawn) [Compound A97]
12 to 48 µL/min/mg

Answer with the recorded microsomal CLint at 1 μM for the compound listed here: CSc1nc(COc2ccc(C(C)(C)c3cc(Cl)c(OCCCl)c(C#N)c3)cc2)c(C)o1 [Compound A118]
≥ 48 µL/min/mg

Answer with the recorded microsomal CLint at 1 μM for the compound listed here: Cc1nc(S(C)(=O)=O)oc1COc1ccc(C(C)(C)c2cc(Cl)c(OCCCl)c(C#N)c2)cc1 [Compound A81]
≥ 48 µL/min/mg
